Origin of values: ChEMBL document CHEMBL2218924

Below, each entry is listed alongside its reported residual activity.
- system.tested: Insulin receptor-related protein (Homo sapiens)
- reported.conditions: at 1 µM
test.readout: residual activity (%)

structure_notation=CC#CC(=O)Nc1cc2c(Nc3ccc(F)c(Cl)c3)ncnc2cn1 unit_of_measurement=% assay_value=127
structure_notation=Cc1ccc(S(=O)(=O)/C=C/C#N)cc1 unit_of_measurement=% assay_value=119
structure_notation=CN(C)c1ccc(/C=C2\C(=O)Nc3ccccc32)cc1 unit_of_measurement=% assay_value=111
structure_notation=N#C/C(=C(\N)Sc1ccc(N)cc1)c1ccccc1C(F)(F)F unit_of_measurement=% assay_value=105
structure_notation=O=C1NC(=O)c2cc(Nc3ccc(F)cc3)c(Nc3ccc(F)cc3)cc21 unit_of_measurement=% assay_value=122
structure_notation=COc1cccc(-c2cc(=O)c3ccccc3o2)c1N unit_of_measurement=% assay_value=106
structure_notation=O=c1c2ccccc2[nH]c(=S)n1CCN1CCC(=C(c2ccc(F)cc2)c2ccc(F)cc2)CC1 unit_of_measurement=% assay_value=120
structure_notation=COc1cc2ncnc(N3CCN(C(=O)Nc4ccc(Oc5ccccc5)cc4)CC3)c2cc1OC unit_of_measurement=% assay_value=117
structure_notation=c1ccc(-c2n[nH]c3c2oc2ccccc23)cc1 unit_of_measurement=% assay_value=141
structure_notation=CNc1cc2c(Nc3cccc(Br)c3)ncnc2cn1 unit_of_measurement=% assay_value=135
structure_notation=CCN(CC)C(=O)c1ccc(Nc2nc(OCC3CCCCC3)c3nc[nH]c3n2)cc1 unit_of_measurement=% assay_value=69
structure_notation=CCN(CC)CCCCN1c2ccccc2Oc2ccc(Cl)cc21 unit_of_measurement=% assay_value=121
structure_notation=COc1ccc(C(=O)Nc2sc3c(c2C(N)=O)CCCC3)cc1OC unit_of_measurement=% assay_value=116
structure_notation=C[C@@H](N)[C@H]1CC[C@H](C(=O)Nc2ccncc2)CC1 unit_of_measurement=% assay_value=103
structure_notation=Cc1cc2ncc(-c3ccccc3)nc2cc1C unit_of_measurement=% assay_value=124
structure_notation=Nc1ccc2ncnc(NCCc3ccc(Oc4ccccc4)cc3)c2c1 unit_of_measurement=% assay_value=101
structure_notation=O=C1NC(=O)/C(=C\c2ccc3nccnc3c2)S1 unit_of_measurement=% assay_value=127
structure_notation=Cc1ccc(NC2=CC(=O)c3sc(C)nc3C2=O)cc1 unit_of_measurement=% assay_value=118
structure_notation=COc1ccc(CNc2nc(N(CCO)CCO)nc3c2ncn3C(C)C)cc1 unit_of_measurement=% assay_value=92
structure_notation=CO[C@H]1[C@@H](OC)C[C@H](C)[C@@H](OC)C2=CC(=O)C=C(NC(=O)/C(C)=C/C=C/[C@H](OC)[C@@H](OC(N)=O)/C(C)=C/[C@@H]1C)C2=O unit_of_measurement=% assay_value=133
structure_notation=Cc1nc2cc3nc(-c4cccs4)cnc3cc2n1C unit_of_measurement=% assay_value=130
structure_notation=O=C1NC(=O)c2c1c1c3ccccc3[nH]c1c1[nH]c3cc(Br)ccc3c21 unit_of_measurement=% assay_value=97
structure_notation=Oc1ccc(Nc2nc(-c3ccc(Cl)cc3)cs2)cc1 unit_of_measurement=% assay_value=115
structure_notation=CC[n+]1c(/C=C/N(C)c2ccccc2)n(-c2ccccc2)c2ccc(-c3nc4ccccc4s3)cc21 unit_of_measurement=% assay_value=111
structure_notation=N#CCCc1ccc2c(c1)-c1[nH]c3ccc([N+](=O)[O-])cc3c1CC(=O)N2 unit_of_measurement=% assay_value=100
structure_notation=O=[N+]([O-])c1ccc(-c2nc(-c3ccc(F)cc3)c(-c3ccncc3)[nH]2)cc1 unit_of_measurement=% assay_value=124
structure_notation=O=C1NC(=O)/C(=C/c2ccc3c(c2)OC(F)(F)O3)S1 unit_of_measurement=% assay_value=139
